biological target: Hfq wt (Escherichia coli, UniProt P0A6X3 1-102); assay: competition
# IC50 per record follows
# output: number + unit

1) GcvB (structured_RNA) RNA: GACUUCCUGAGCCGGAACGAAAAGUUUUAUCGGAAUGCGUGUUCUGGUGAACUUUUGGCUUACGGUUGUGAUGUUGUGUUGUUGUGUUUGCAAUUGGUCUGCGAUUCAGACCAUGGUAGCAAAGCUACCUUUUUUCACUUCCUGUACAUUUACCCUGUCUGUCCAUAGUGAUUAAUGUAGCACCGCCUAAUUGCGGUGCUUUUUUU	23 nM
2) 3'ETSleuZ (structured_RNA) RNA: GGCCCGGAUGGUGGAAUCGGUAGACACAAGGGAUUUAAAAUCCCUCGGCGUUCGCGCUGUGCGGGUUCAAGUCCCGCUCCGGGUACCAUGGGAAAGAUAAGAAUAAAAUCAAAGCAAUAAGCAGUGUCGUGAAACCACCUUCGGGUGGUUUUUUU	39 nM

For the next question, use this binder.
IC50 reading for AgvB (structured_RNA) RNA: GGCGAUAACACAACAAUAUCAGUAUCUCAUGCUAUUGCCCGAACCCAUUCGGGCAUUUUU : 9.9 nM
